Collected Papp B→A at 90 min values appear next to each entry.
Assay Name: in vitro
Assay type: in vitro ADME
Experimental Conditions: human; Caco-2 monolayer, basolateral to apical, 90-minute incubation; read-out: Papp, B-A
Please state the figure in ×10⁻⁶ cm/s; there is no need to write the unit.

Data request: Could you share which Papp B→A at 90 min value was measured for CC(C)[C@H](N)C(=O)O[C@H]1[C@@H](O)[C@](C#N)(c2ccc3c(NC(=O)OCOC(=O)C(C)(C)C)ncnn23)O[C@@H]1COC(=O)Cc1ccccc1 [Compound 360] ?
Data returned: 0.16

Data request: Next molecule: CC(=O)OCOC(=O)Nc1ncnn2c([C@]3(C#N)O[C@H](COC(=O)Cc4ccccc4)[C@@H](OC(=O)[C@@H](N)C(C)C)[C@H]3O)ccc12 [Compound 355]
Data returned: 0.49

Data request: Now this one: N#C[C@@]1(c2ccc3c(N)ncnn23)O[C@H](COC(=O)Cc2ccccc2)[C@@H](OC(=O)Cc2ccccc2)[C@H]1O [Compound 44]
Data returned: 25

Data request: Lookup N#C[C@@]1(c2ccc3c(NC(=O)c4ccccc4)ncnn23)O[C@H](COC(=O)Cc2ccccc2)[C@@H](O)[C@H]1O [Compound 105]
Data returned: 1.4

Data request: Now give it for CNc1nc(NC(=O)Cc2ccccc2)nc2c1ncn2[C@@H]1O[C@H](COC(C)=O)[C@@H](O)[C@@]1(C)F [Compound 334] too.
Data returned: 19

Data request: Similarly, CCCCC(=O)Nc1ncnn2c([C@]3(C#N)O[C@H](CO)[C@@H](OC(=O)Cc4ccccc4)[C@H]3O)ccc12 [Compound 340] ?
Data returned: 0.23

Data request: Param item: CCCCC(=O)Nc1ncnn2c([C@]3(C#N)O[C@H](COC(=O)Cc4ccccc4)[C@@H](O)[C@H]3O)ccc12 [Compound 277]
Data returned: 5.4

Data request: Same for CNc1nc(N)nc2c1ncn2[C@@H]1O[C@H](COC(=O)C(C)C)[C@@H](OC(=O)Cc2ccccc2)[C@@]1(C)F [Compound 211]
Data returned: 4.8

Data request: Ok, now CC(C)(C)C(=O)OCO[C@H]1[C@@H](O)[C@](C#N)(c2ccc3c(N)ncnn23)O[C@@H]1COC(=O)Cc1ccccc1 [Compound 48]
Data returned: 1.9

Data request: And the next one, CCCC(=O)Nc1ncnn2c([C@]3(C#N)O[C@H](COC(=O)Cc4ccccc4)[C@@H](OC(=O)[C@@H](N)C(C)C)[C@H]3O)ccc12 [Compound 346] ?
Data returned: 9

Data request: Another molecule: CC(C)C(=O)O[C@H]1[C@@H](O)[C@](C#N)(c2ccc3c(N)ncnn23)O[C@@H]1COC(=O)Cc1ccccc1 [Compound 46]
Data returned: 4.8

Data request: Do the same for CC(=O)Nc1ncnn2c([C@]3(C#N)O[C@H](COC(=O)Cc4ccccc4)[C@@H](OC(=O)[C@@H](N)C(C)C)[C@H]3O)ccc12 [Compound 344] please
Data returned: 9.7

Origin of values: patent US12102648B2
